Molecular target: AAK1 (121-471) (Homo sapiens, UniProt Q2M2I8)
Sequence (Q2M2I8 46-315 limits assumed): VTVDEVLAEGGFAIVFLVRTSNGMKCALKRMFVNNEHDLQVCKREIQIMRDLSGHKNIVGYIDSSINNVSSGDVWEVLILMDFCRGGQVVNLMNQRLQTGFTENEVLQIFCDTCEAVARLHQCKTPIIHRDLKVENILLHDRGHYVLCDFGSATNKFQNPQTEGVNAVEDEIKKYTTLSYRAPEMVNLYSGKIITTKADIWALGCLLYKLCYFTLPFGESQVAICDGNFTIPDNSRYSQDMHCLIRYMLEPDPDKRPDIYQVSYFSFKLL
Test: STD-NMR fragment screening, AAK1
Format: binding
Conditions: 1 = hit, 0 = no hit

substance.smiles | AAK1 (STD-NMR hit flag)
Cc1nn(CCO)c(N)c1I | 0
Cn1ncc(Br)c1C(=O)O | 0
Nc1c(Cl)ncnc1NC1CC1 | 1
O=C(O)c1cncc(Br)c1 | 1
Nc1ccc(Br)c(C(=O)O)n1 | 0
CCn1ncc(Br)c1C(N)=O | 1
O=C(c1ccc(Br)cc1)C12CN3CN(CN(C3)C1)C2 | 0

====

Target: AAK1 (121-471) (Homo sapiens)
Test: STD-NMR fragment screening, AAK1
Assay type: binding
Conditions: 1 = hit, 0 = no hit
Procedure: All fragments were stored at −20°C as solids in argon flushed glass bottles. For NMR screening, fragments were weighed and dissolved in DMSO-d6 to a stock concentration of 300 mM. Mother plates were prepared with a 100 mM concentration. […] Fifteen of these compounds contain the same halogen twice. […] As fragment mixtures can lead to competitive effects between their fragments, it is not advised to use the quantification of peak mixtures for hit ranking.

compound | AAK1 (STD-NMR hit flag)
O=C(O)c1csc(Cl)n1 [Fragment B02291228] | 0
O=C(O)c1ccc(Cl)cn1 [Fragment B02289602] | 0
COc1ccc(I)cc1CNCCO [Fragment B02290112] | 0
Nc1ncc(C(F)(F)F)cc1Cl [Fragment B02291219] | 1
O=C(O)c1c(Cl)cncc1Cl [Fragment B02297411] | 0
Brc1cnc2cnccn12 [Fragment B02289617] | 0
Cc1cnc(C)c(Cl)n1 [Fragment B02297402] | 1
Cc1c(Cl)c([N+](=O)[O-])nn1CC(=O)O [Fragment B02290123] | 0
OB(O)c1ccncc1Br [Fragment B02297399] | 0
Nc1cnccc1Br [Fragment B02297424] | 1
Clc1ccc(CN2CCNCC2)cn1 [Fragment B02290121] | 0
Cc1nn(C)c(Cl)c1S(N)(=O)=O [Fragment B02290522] | 1
Cc1ncccc1Br [Fragment B02289619] | 0
Fc1cnccc1I [Fragment B02290473] | 1
O=S(=O)(c1ccc(Cl)s1)N1CCNCC1 [Fragment B02291236] | 0
CCOC(=O)c1coc(Cl)n1 [Fragment B02289613] | 0
Nc1c(Cl)ccc2nonc12 [Fragment B02291217] | 1
Nc1ncnc(Cl)c1Cl [Fragment B02289621] | 1
Brc1ccc(C2CNCCN2)s1 (stereo not drawn) [Fragment B02297408] | 0
COc1ccc(CN)c(Cl)c1 [Fragment B02290088] | 0
Brc1noc(C2CC2)n1 [Fragment B02291272] | 0
